Test system: HCT-116 colon
Assay: NCI-60 one-dose screen, 48 h
Settings: 10 µM unless noted
The panel holds about 83,000 compounds, 20% with a hit somewhere; the sample as a whole holds those more often. Activity calls are given as the source filed them. How the source made its calls: active means growth percent below 10; inactive means the rest.
Pick one and only one: active, inactive

{"columns": ["molecule", "cat"],
 "data": [
  ["CC1(C)C2CC1C1(/C=N/NC(N)=S)C(C2)C(C#N)(C#N)C1(C#N)C#N (stereo not drawn)", "inactive"],
  ["CC1Cc2ccccc2N1NC(=O)c1ccc(Cl)c(S(N)(=O)=O)c1 (stereo not drawn)", "inactive"],
  ["O=c1c2cc(F)cc(Cl)c2sc2c(NCCCNCCO)nc3ccccc3c12", "inactive"]
]}

Input line: What outcome does the record of this test show for COc1cc(Nc2cn[nH]c2-c2ccc(Cl)cc2)cc(OC)c1OC ?
Output line: inactive

Input line: Fill in: this test's call for Cc1nc2ccccc2c(/C=C/c2ccccc2)c1C(=O)/C=C/c1ccc(C(F)(F)F)cc1 is ___
Output line: active

Input line: Could you check what this test reported for c1ccc(Cc2nn3cc(-c4ccccc4)nc3s2)cc1 ?
Output line: inactive

Input line: Record request — test call for c1ccc(-c2nc3sc(-c4ccccc4)cn3n2)cc1
Output line: inactive

Input line: Field: outcome | Entry: CCCCn1c(-c2ccc(C(=O)O/N=C(\N)c3ccc(OC)cc3)cc2)nc(-c2ccccc2)c1-c1ccccc1
Output line: active

Input line: Which outcome was assigned to NCCNc1nc2ccccc2c2c(=O)c3cc(F)ccc3sc12 in this test?
Output line: inactive

Input line: Identify the outcome logged in this assay for the molecule shown: COc1cc(C2CC(c3cccc(Br)c3)=NN2C(C)=O)cc(OC)c1OC (stereo not drawn)
Output line: inactive

Input line: Given N#CC1=C(N)Oc2c(sc3c(Br)cccc23)C1c1ccc(Br)cc1 (stereo not drawn) , state the outcome it received in this test.
Output line: inactive

Input line: State the result this test recorded for Cn1cc(-c2cc3ncnc(Nc4ccc(CC(=O)Nc5cc(C(C)(C)C)nn5C)cc4)c3s2)cn1 .
Output line: inactive

Input line: Record request — test call for CN(C)c1ccc(/C=N\Nc2cc(=O)[nH]c3ccc(Cl)cc23)cc1
Output line: inactive

---

Test system: MDA-MB-231 breast
Experiment: NCI-60 one-dose screen, 48 h (100 = growth as untreated, 0 = no growth, -100 = all killed)
Conditions: 10 µM unless noted
Method: Cells are grown in 96 well plates and exposed to the test compound for 48 hours. Compounds are tested at a single concentration, which is 10^-5 M for most compounds. The reported endpoint is percent growth (GI% or GIPRCNT), where numbers from 0 - 100% represent growth inhibition, and numbers from -100% - 0 represent cell death. For example, a value of 40 represents 60% growth inhibition. A value of 0 means no net growth occurred over the course of the experiment. […]
Compounds without any hit were thinned out: in the full panel of roughly 83,000, 20% have a hit.
# strict inequality: growth < 80% yields YES, everything else yields NO

{"columns": ["molecule", "target.or.system", "cat"],
 "data": [
  ["Cc1cc(=O)[nH]c(=O)n1Cc1cn(-c2c3ccccc3nc3ccccc23)nn1", "MDA-MB-231 breast", "YES"]
]}

Now take the following molecule into account.
Input line: In the record for NS(=O)(=O)c1ccc(N=Nc2ccc(-c3nn4cc(-c5ccccc5)nc4s3)cc2)cc1 , is growth less than 80%?
Output line: NO
